All figures here come from patent US6875741.

TESTED TARGET: T1, Soluble IGF-1R (R&D Systems, Cat. # 391-GR) (UniProt P08069 31-935, limits assumed)
T1 construct: extracellular domain; bought; also called sIGF-1R
ASSAY NAME: phage ELISA ratios compared
Assign label 1 to entries whose IGF-1R/IR ratio comparison meets or exceeds 5; assign label 0 to the rest.

Past entries and their recorded results:
SSCDGAGHESFYEWFVRQVSGCRSV [H2CA-3-C8-IGFR]    label 0
PVGVQGFYEGLSRLVLGRGGW [20E2B-4-F8-IGFR]    label 1
IQQELTFYDLLHRLVRSELGS [20E2B-3-D2-IGFR]    label 1
FYDAIDQLVRGSARAGGTRD [R20α-3-20E2-IR]    label 1

Challenge: Entry NYRRQVFNGNFYDWFDRQVFSLVTPG [H2CA-3-D8-IGFR] : is its IGF-1R/IR ratio comparison no less than 5?
Response given: label 0
